Assay: qHTS of pediatric cancer cell lines to identify multiple opportunities for drug repurposing: Confirmatory screen for SK-N-SH cells (AID 1347129);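 note: potency is the fitted concentration of half-maximal effect; cells exposed to compound for 48 h before viability read; nearly all actives have a fitted effect of over 60% in size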
Conditions: SK-N-SH neuroblastoma cell viability; series mostly up to 46.1 µM
Results filed as inconclusive are left out. Activity calls are given as the source filed them. Calls come from the whole dose curve; as a rule, active = well fitted cell-killing curve with a large enough effect; inconclusive = small, poorly fitted or top-dose-only effect; inactive = flat fitted curve, though single readings scatter.

Structure smiles: CC(C)n1nc(-c2ccc3oc(N)nc3c2)c2c(N)ncnc21
Potency: 590 nM (active)
//
Structure smiles: NS(=O)(=O)c1cccc2c1C(=O)c1cccc(O)c1C2=O
Potency: 2090 nM (active)

---

Experiment: Quantitative High-Throughput drug screen in 47 multiple myeloma cell lines against the NCATS MIPE library collection: LP1_DSMZ cell viability assay (AID 1918982); note: nearly all actives have a fitted effect of over 35% in size; note: potency is the fitted concentration of half-maximal effect
Details: LP1 myeloma viability, CellTiter-Glo ATP luminescence, 48 h; series mostly up to 45.8 µM
Records with an inconclusive call do not appear. Activity calls are given as the source filed them. Calls follow the shape of the dose curve; as a rule, active = well fitted cell-killing curve with a large enough effect; inconclusive = small, poorly fitted or top-dose-only effect, or effect the other way; inactive = no such curve, though single readings can be large or run the other way.
Quantity kind: Potency

Structure smiles: Nc1ncnc2c1ncn2[C@@H]1O[C@@H](CO)[C@H](O)[C@H]1O
Quantity kind: Potency
Test result: inactive
--
Structure smiles: CC[C@H]1OC(=O)[C@H](C)[C@@H](O[C@H]2C[C@@](C)(OC)[C@@H](O)[C@H](C)O2)[C@H](C)[C@@H](O[C@@H]2O[C@H](C)C[C@H](N(C)C)[C@@H]2O)[C@](C)(O)C[C@@H](C)CN(C)[C@H](C)[C@@H](O)[C@]1(C)O
Quantity kind: Potency
Test result: inactive
--
Structure smiles: CC(=O)N(C)C1(c2ccccc2)CCN(CCC[C@]2(c3ccc(Cl)c(Cl)c3)CCCN(C(=O)c3ccccc3)C2)CC1
Quantity kind: Potency
Test result: 26.4 µM (active)
--
Structure smiles: CC(C)OC(=O)CCCC=CC[C@@H]1[C@H](C=C[C@@H](O)COc2cccc(C(F)(F)F)c2)[C@H](O)C[C@@H]1O
Quantity kind: Potency
Test result: 14.8 µM (active)
--
Structure smiles: Nc1ncnc2ccccc12
Quantity kind: Potency
Test result: inactive

---

Assay: Quantitative High-Throughput drug screen in 47 multiple myeloma cell lines against the NCATS MIPE library collection: LP1_DSMZ cell viability assay (AID 1918982); note: nearly all actives have a fitted effect of over 35% in size
Details: LP1 myeloma viability, CellTiter-Glo ATP luminescence, 48 h; series mostly up to 45.8 µM
Inconclusive results are not listed. The source made the active and inactive calls. The call rests on the fitted dose curve; in most records, active means well fitted cell-killing curve with a large enough effect; inconclusive means small, poorly fitted or top-dose-only effect, or effect the other way; inactive means no such curve, though single readings can be large or run the other way.
Labels: active, inactive

Molecule: CC(=O)OC1C(C)OC(Oc2c(-c3ccc(O)cc3)oc3cc(O)cc(O)c3c2=O)C(O)C1OC(C)=O (stereo not given)
Class name: inactive
--
Molecule: CC(=O)Nc1ccc([C@H](C)C(=O)Nc2ncc(C(C)C)s2)cc1
Class name: active
--
Molecule: CNC1CCC(N(Cc2cccc(-c3ccncc3)c2)C(=O)c2sc3c(F)ccc(F)c3c2Cl)CC1 (stereo not given)
Class name: active
--
Molecule: O=C(NCc1ccccc1)c1csc(Nc2ccncn2)n1
Class name: active
--
Molecule: O=C(Nc1cccc(Br)c1)c1cccc(S(=O)(=O)N2CCCCCC2)c1
Class name: active
--
Molecule: CCCCCN(C)CCC(O)(P(=O)(O)O)P(=O)(O)O
Class name: inactive
--
Molecule: CC(C)(C)c1cc(C(=O)O)c(NC(=O)Nc2ccc3[nH]ncc3c2)s1
Class name: inactive
--
Molecule: OC[C@H]1O[C@@H](n2cnc3c2NC=NC[C@@H]3O)C[C@H]1O
Class name: inactive
--
Molecule: CCn1cc(C(=O)O)c(=O)c2ccc(C)nc21
Class name: inactive
--
Molecule: NC(CO)(CO)CCc1ccc(Sc2cccc(OCc3ccccc3)c2)cc1Cl
Class name: active
--
Molecule: O=C(O)CCC1CCC(c2cc(F)ccc2F)(S(=O)(=O)c2ccc(Cl)cc2)CC1 (stereo not given)
Class name: inactive
--
Molecule: Nc1ncnc2c1nc(Cl)n2[C@@H]1O[C@H](CO)[C@@H](O)[C@@H]1O
Class name: active
--
Molecule: COc1cc2ncnc(-n3nc(-c4ccccn4)nc3N)c2cc1OC
Class name: inactive
--
Molecule: CC1(C)CCC[C@@]2(C)[C@@H]1CC[C@@]1(C)OC(=O)C[C@H]21
Class name: inactive
--
Molecule: NC1CCC(Nc2nc(Nc3ccc(C(=O)N4CCCCC4)cc3)c3ncn(-c4cccc(F)c4)c3n2)CC1 (stereo not given)
Class name: inactive
--
Molecule: COc1ccc(-c2coc3cc(O)cc(O)c3c2=O)cc1
Class name: inactive
--
Molecule: C=C1C(=O)OC(CCCCCCCC)C1C(=O)O (stereo not given)
Class name: inactive
--
Molecule: NC[C@@H]1O[C@@H](O[C@H]2[C@@H](O)[C@H](O[C@@H]3[C@@H](O)[C@@H](N)C[C@H](N)[C@H]3O[C@H]3O[C@H](CN)[C@@H](O)[C@@H](O)[C@H]3N)O[C@H]2CO)[C@H](N)[C@@H](O)[C@@H]1O
Class name: inactive
--
Molecule: C[C@H]1[C@H](NC(=O)C(=NOC(C)(C)C(=O)O)c2csc(N)n2)C(=O)N1S(=O)(=O)O
Class name: inactive
--
Molecule: O=c1ccn([C@@H]2O[C@H](CO)[C@H](O)[C@H]2O)c(=O)[nH]1
Class name: active
